COMPOUND	logP
COP(=O)(OC)O/C(=C\Cl)c1cc(Cl)c(Cl)cc1Cl	3.87
CCOP(=S)(OCC)Oc1ccc2c(C)c(Cl)c(=O)oc2c1	4.01
CCSC(=O)N1CCCCCC1	2.49
Clc1ccc(C(c2ccccc2Cl)C(Cl)(Cl)Cl)cc1 (configuration not stated)	5.53
CCCSC(=O)N(CCC)CCC	3.19
ClC(Cl)=C(c1ccc(Cl)cc1)c1ccccc1Cl	5.45
CCSC(=O)N(CC(C)C)CC(C)C	3.45

====

Output yes for records whose logP is lower than 3, no for records at or above 3.

COMPOUND	CLASS
CCCCN(CC)C(=O)SCCC	no
CCSC(=O)N(CC)C1CCCCC1	no
CCCN(CCC)C(=O)SCC	yes
Clc1ccc(C(c2ccccc2Cl)C(Cl)Cl)cc1 (stereo unspecified)	no
CCOP(=S)(OCC)SCSC(C)(C)C	no
